target: AHR (UniProt P35869); construct: IC50; test: DRE-Luciferase Reporter Assay (Example 1A); format: cell-based, murine or human; details: cell line and AHR activating ligand not specified

Smiles Repr: CC(C)n1cnc2c(NCCc3c[nH]c4ccccc34)nc(-c3cncc(F)c3)nc21
IC50: < 500 nM

Smiles Repr: Fc1cncc(-c2nc(NCCc3c[nH]c4ccccc34)c3ccsc3n2)c1
IC50: > 1500 nM

Smiles Repr: CC(C)c1n[nH]c2c(NCCc3c[nH]c4ccccc34)nc(-c3cncc(F)c3)nc12
IC50: 1000 to 1500 nM

Smiles Repr: CC(C)c1ccc2c(NCCc3c[nH]c4ccccc34)nc(-c3cncc(F)c3)nn12
IC50: 500 to 1000 nM

Smiles Repr: CC(C)n1cnc2c(NCCc3c[nH]c4cccnc34)nc(-c3cncc(F)c3)nc21
IC50: < 500 nM
